Reference source for all entries: PubChem BioAssay (NCI)

Assign TGI to each entry below.
System: PC-3 prostate
Test: NCI tumour cell line growth inhibition, 48 h

See these solved cases before continuing.
| compound | targetDesc | TGI |
| --- | --- | --- |
| COc1cc(-c2nc(SC)nc3c2CCc2ccccc2-3)cc(OC)c1OC | PC-3 prostate | > 100 µM |
| CC(=O)/C(=C/N1CCN(C(=O)c2ccco2)C1=S)C(=O)c1ccccc1 | PC-3 prostate | > 50 µM |
| CC1/C(=N/O)CC(c2ccccc2)N(N=O)C1c1ccccc1 (configuration not stated) | PC-3 prostate | > 100 µM |
| C[C@H]1CC[C@@H]2[C@@H](C)[C@H]3[C@H](C[C@H]4[C@@H]5CC=C6C[C@@H](O)CC[C@]6(C)[C@H]5CC[C@]34C)N2C1 | PC-3 prostate | > 100 µM |
| O=S(=O)(Nc1ccc(Cl)c(Cl)c1)c1ccc(-c2cnc(C3CC3)o2)cc1 | PC-3 prostate | 14.5 µM |
| COc1ccc(/C=C(/c2ccc(OC)cc2)c2c(Cl)cc(Cl)c(/C(=C\c3ccc(OC)cc3)c3ccc(OC)cc3)c2N=Nc2ccccc2)cc1 | PC-3 prostate | > 100 µM |

From here, focus on the item given below.
Query: For the compound shown here, "COc1cc2nc(-c3cccs3)nc(N3C(c4cc(OC)c(OC)c(OC)c4)=NNC(=O)c4ccccc43)c2cc1OC" , give the reported TGI.
Response: > 100 µM
